test: photochromic response of test squares on an optical bench (sensitivity, saturation, bleach rate); assay type: physicochemical; settings: UV exposure continued for 15 minutes, 72° F. (22.2° C.)
Quantity: ΔOD @ Saturation

Example cases with answers are listed next.
[
  {
    "Molecule": "CCCCCCn1c(=O)oc2c(c3c(c4ccccc42)OC(c2ccccc2)(c2ccccc2)C=C3)c1=O [Example 11]",
    "Observed Result": 0.41
  },
  {
    "Molecule": "O=C1OCOc2c1c1c(c3ccccc23)OC(c2ccccc2)(c2ccccc2)C=C1 [Example 1]",
    "Observed Result": 1.89
  },
  {
    "Molecule": "CCC1OC(=O)c2c3c(c4ccccc4c2O1)OC(c1ccccc1)(c1ccccc1)C=C3 (centres unmarked) [Example 4]",
    "Observed Result": 1.71
  },
  {
    "Molecule": "CC(c1ccccc1)C1OC(=O)c2c3c(c4ccccc4c2O1)OC(c1ccccc1)(c1ccccc1)C=C3 (centres unmarked) [Example 8]",
    "Observed Result": 1.58
  },
  {
    "Molecule": "O=C1OC(c2ccccc2)Oc2c1c1c(c3ccccc23)OC(c2ccccc2)(c2ccccc2)C=C1 (centres unmarked) [Example 7]",
    "Observed Result": 1.46
  }
]

1 = CCCCCC1OC(=O)c2c3c(c4ccccc4c2O1)OC(c1ccccc1)(c1ccc(OC)cc1)C=C3 (centres unmarked) [Example 3]
2 = Cn1c(=O)oc2c(c3c(c4ccccc42)OC(c2ccccc2)(c2ccccc2)C=C3)c1=O [Example 9]
Hi! Which is lower in terms of ΔOD @ Saturation, the first one 1 or the second one 2 ? Answer by quoting the chosen item's label. 2

Data origin: patent US6022497A
